Assay: total protein half-life in vivo (active degradation + dilution); higher = more stable protein
Conditions: E. coli NCM3722 delta-lon; growth: N-lim chemostat; doubling time 6 h
Mark 1 for reported total protein half-life in vivo of 5 h or greater; mark -1 for anything smaller.

query: Given MSDISKASLPKAIFLMGPTASGKTALAIELRKILPVELISVDSALIYKGMDIGTAKPNAEELLAAPHRLLDIRDPSQAYSAADFRRDALAEMADITAAGRIPLLVGGTMLYFKALLEGLSPLPSADPEVRARIEQQAAEQGWESLHRQLQEVDPVAAARIHPNDPQRLSRALEVFFISGKTLTELTQTSGDALPYQVHQFAIAPASRELLHQRIEQRFHQMLASGFEAEVRALFARGDLHTDLPSIRCVGYRQMWSYLEGEISYDEMVYRGVCATRQLAKRQITWLRGWEGVHWLDSEKPEQARDEVLQVVGAIAG , state whether its total protein half-life in vivo is at least 5 h.
result: 1

query: Given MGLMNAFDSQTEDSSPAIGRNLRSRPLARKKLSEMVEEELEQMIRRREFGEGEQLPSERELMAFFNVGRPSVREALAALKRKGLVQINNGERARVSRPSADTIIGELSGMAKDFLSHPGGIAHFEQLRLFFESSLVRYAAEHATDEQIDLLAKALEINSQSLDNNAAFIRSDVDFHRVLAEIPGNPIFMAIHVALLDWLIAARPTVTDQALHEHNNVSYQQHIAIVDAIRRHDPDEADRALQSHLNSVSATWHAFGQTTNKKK [P0A8W0] , state whether its total protein half-life in vivo is at least 5 h.
result: -1

query: Given MKRYTPDFPEMMRLCEMNFSQLRRLLPRNDAPGETVSYQVANAQYRLTIVESTRYTTLVTIEQTAPAISYWSLPSMTVRLYHDAMVAEVCSSQQIFRFKARYDYPNKKLHQRDEKHQINQFLADWLRYCLAHGAMAIPVY [P0ADU7] , state whether its total protein half-life in vivo is at least 5 h.
result: -1

query: Given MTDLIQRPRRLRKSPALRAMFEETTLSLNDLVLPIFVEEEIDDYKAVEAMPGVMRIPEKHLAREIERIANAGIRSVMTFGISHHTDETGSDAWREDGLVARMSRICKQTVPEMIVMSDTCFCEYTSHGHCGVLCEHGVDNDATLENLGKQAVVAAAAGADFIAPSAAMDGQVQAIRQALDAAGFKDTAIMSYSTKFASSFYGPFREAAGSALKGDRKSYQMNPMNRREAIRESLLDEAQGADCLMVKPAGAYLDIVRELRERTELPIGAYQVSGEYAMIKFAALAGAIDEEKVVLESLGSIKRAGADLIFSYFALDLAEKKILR [P0ACB2] , state whether its total protein half-life in vivo is at least 5 h.
result: 1
